Ref: PubChem BioAssay (EPA / NIEHS)

Read-out: Matrix Metallopeptidase 9 (MMP9), MMP9 (gene 4318)
Assay: BSK_BE3C_MMP9: BioMAP Diversity Plus: BE3C Assay for Matrix Metallopeptidase 9 (MMP9) Biomarker Activity (AID 2284283)
Settings: primary human bronchial epithelial cells
The source made the active and inactive calls. The calls were made as follows: active = hit-call score of the fitted dose curve at least 0.9, where 1 is the maximum; inactive = score below 0.9.
measuredQuantity: outcome

Some solved cases for reference:
[
  {
    "compound": "O=P(O)(O)OCCC(F)(F)C(F)(F)C(F)(F)C(F)(F)C(F)(F)C(F)(F)F",
    "measuredResult": "inactive"
  },
  {
    "compound": "O=S(=O)(O)C(F)(F)C(F)(F)C(F)(F)C(F)(F)C(F)(F)C(F)(F)C(F)(F)F",
    "measuredResult": "inactive"
  },
  {
    "compound": "FC(F)(F)C(F)(F)C(F)(F)C(F)(F)C(F)(F)CCI",
    "measuredResult": "inactive"
  },
  {
    "compound": "Cc1ccc(S(=O)(=O)OCC(F)(F)C(F)(F)C(F)(F)C(F)(F)C(F)(F)C(F)F)cc1",
    "measuredResult": "inactive"
  },
  {
    "compound": "CCCCCCCCC(F)(F)C(F)(F)C(F)(F)C(F)(F)C(F)(F)C(F)(F)F",
    "measuredResult": "inactive"
  }
]

Turning now to a further record.
Q: I'd like to know its outcome. The compound in question is CCO[Si](CCC(F)(F)C(F)(F)C(F)(F)C(F)(F)C(F)(F)C(F)(F)F)(OCC)OCC
A: inactive
